# assay-target: MEK1 (Homo sapiens)
# Construct: active MEK1 human recombinant protein
# Sequence (Q02750 whole entry): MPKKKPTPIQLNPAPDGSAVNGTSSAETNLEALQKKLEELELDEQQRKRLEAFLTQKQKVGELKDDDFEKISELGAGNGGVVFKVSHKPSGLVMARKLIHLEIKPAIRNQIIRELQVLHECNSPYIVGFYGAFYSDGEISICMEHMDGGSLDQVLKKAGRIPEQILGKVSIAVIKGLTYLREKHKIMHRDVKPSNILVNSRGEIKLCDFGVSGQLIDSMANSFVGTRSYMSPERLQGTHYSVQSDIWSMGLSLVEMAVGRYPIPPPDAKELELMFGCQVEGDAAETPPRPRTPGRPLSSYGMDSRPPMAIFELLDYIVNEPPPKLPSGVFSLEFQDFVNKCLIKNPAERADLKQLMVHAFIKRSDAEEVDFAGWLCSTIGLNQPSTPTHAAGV
# experiment-description: SPR (Biacore T200, CM5 chip); also pull-down, DARTS and in vitro kinase assay
measurement-type: pKd
One number for each entry, as −log10 of the molar value.

Q. Param readout = pKd; param system = MEK1 (Homo sapiens); param query = "O=c1[nH]c2ccccc2n1CCCN1CCC(n2c(=O)[nH]c3cc(Cl)ccc32)CC1" ; response: value
A. 5.21

---

# assay-target: MEK2 (Homo sapiens)
# Construct: active MEK2 human recombinant protein
# Sequence (P36507 whole entry): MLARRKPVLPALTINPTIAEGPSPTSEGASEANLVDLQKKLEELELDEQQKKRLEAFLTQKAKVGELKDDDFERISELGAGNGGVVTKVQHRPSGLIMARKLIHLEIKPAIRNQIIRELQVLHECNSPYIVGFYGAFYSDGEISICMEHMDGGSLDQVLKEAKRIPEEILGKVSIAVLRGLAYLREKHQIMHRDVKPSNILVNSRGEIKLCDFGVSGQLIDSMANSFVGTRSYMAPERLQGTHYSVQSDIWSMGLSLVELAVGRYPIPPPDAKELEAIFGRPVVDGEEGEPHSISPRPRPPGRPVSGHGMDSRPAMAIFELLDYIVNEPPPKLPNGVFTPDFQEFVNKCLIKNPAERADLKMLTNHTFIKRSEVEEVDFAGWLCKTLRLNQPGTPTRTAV
# experiment-description: SPR (Biacore T200, CM5 chip); also pull-down, DARTS and in vitro kinase assay
measurement-type: Kd (µM)
Answers are plain numbers, in µM.

Q. Using the record for "O=c1[nH]c2ccccc2n1CCCN1CCC(n2c(=O)[nH]c3cc(Cl)ccc32)CC1" , report its Kd.
A. 6.66
